# assayMethodText: coupled detection enzyme interference, dose response, artefact control for MgcRacGAP inhibitor project, biochemical, coupled enzyme counter-screen (AID 624351);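 further: signal is the ADP detection kit reading of free GDP without any GAP enzyme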
# conditionParameters: ADP Hunter coupled enzyme counter-screen, fluorescence, no MgcRacGAP; series mostly up to 80 µM
The campaign covered roughly 2,400 compounds. About 1,400 (58%) were called active.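 How the source made its calls: active means inhibition of 30% or more at any tested dose; inconclusive means primary hits over the limit that were never retested; inactive means the rest.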 So high a share suggests a set chosen from earlier hits. Some of the results follow.
Tick one outcome: Y (active), N (inactive)

> print(dat)
                                   molecule  qualitativelabel
1  COc1cc(CNc2ccc3[nH]c(=O)[nH]c3c2)ccc1OCc1c(F)cccc1Cl                 N
2                Oc1ccc(NC(=S)Nc2ccccc2)cc1                 Y
3  COc1cc(/C=N/NC(=O)c2cccc(NC(=O)c3ccccc3C)c2)ccc1O                 Y
4  COc1cc(CNc2ccc3[nH]c(=O)[nH]c3c2)ccc1OCc1ccccc1F                 N
5                    COc1ccc(NCc2cccnc2)cc1                 Y

Req: Dear all, I need the recorded test outcome for O=C(N/N=C/c1ccc(O)c(O)c1)c1ccc(-n2cnnn2)cc1 , thank you.
Resp: Y

Req: Dear all, I need the recorded test outcome for CC(=O)Nc1ccc(OC(=O)Cc2ccc(Cl)cc2)cc1 , thank you.
Resp: N

Req: Dear all, I need the recorded test outcome for COC1=C(Br)C(=O)c2nc(C)ccc2C1=O , thank you.
Resp: N

Req: Dear all, I need the recorded test outcome for COc1ccccc1-c1cn[nH]c1-c1ccc(O)cc1O , thank you.
Resp: Y

Req: Dear all, I need the recorded test outcome for COc1cc(/C=N/NC(=O)C(=O)Nc2ccccn2)ccc1O , thank you.
Resp: Y

Req: Dear all, I need the recorded test outcome for CCOc1cccc(CNc2ccc(O)cc2)c1OCc1ccc(Cl)cc1Cl , thank you.
Resp: N
